- Tested on: HBV viral production from HepAD38 cells
- protocol_description: Activity of test compounds on viral production from HepAD38 cells (viral load by qPCR of HBV core sequence in supernatant)
- Format: cell-based
- recorded_conditions: Hepatitis B virus, 120 h, 5 days incubation, HBV DNA in supernatant by qPCR, top concentration 10 μM, read-out: Viral Load EC50 Activity range
pEC50: −log10 of the molar value.
reported_metric: pEC50

>  <compound>
CN1C(C(=O)Nc2ccc(F)c(Cl)c2)CC(c2ccc(C(F)(F)F)cc2)NS1(=O)=O (racemic)

>  <result>
5.30 to 6.00

$$$$
>  <compound>
[2H]C([2H])([2H])N1C(C(=O)Nc2ccc(F)c(Cl)c2)CC(c2ccc(-c3cn(C)cn3)s2)NS1(=O)=O (stereo not shown)

>  <result>
> 6.00

$$$$
>  <compound>
COC(C)(C)CCN1C(C(=O)Nc2ccc(F)c(Cl)c2)CC(c2nccs2)NS1(=O)=O (racemic)

>  <result>
< 5.30

$$$$
>  <compound>
C#CCN1[C@H](C(=O)Nc2ccc(F)c(Cl)c2)C[C@H](c2nccs2)NS1(=O)=O (relative stereo)

>  <result>
> 6.00

$$$$
>  <compound>
CN1[C@@H](C(=O)Nc2ccc(F)c(Cl)c2)C[C@H](c2ncc(Br)s2)NS1(=O)=O [HBV-CSU-122-Trans-ISO-I]

>  <result>
5.30 to 6.00

$$$$
>  <compound>
O=C(Nc1ccc(F)c(Cl)c1)C1CC(c2nccs2)NS(=O)(=O)N1CCCN1CCCC1 (stereo not shown)

>  <result>
< 5.30

$$$$
>  <compound>
CN1C(C(=O)Nc2ccc(F)c(Cl)c2)CC(c2cc(-c3ccnn3C)cs2)NS1(=O)=O (racemic)

>  <result>
> 6.00

$$$$
